System: MCF-7 (breast adenocarcinoma)
test summary: Cell growth inhibition (standard SRB assay), MCF-7
Assay type: cell-based, human
test conditions: 3 days of continuous treatment, read-out: Cell growth inhibition ED50
value kind: EC50 (µM)
Reply with just the number (in µM).

Report value: EC50, system: MCF-7 (breast adenocarcinoma), compound: COC(=O)[C@H](Cc1ccc(O)cc1)NC(=O)c1ccc(NC2c3cc4c(cc3C(c3cc(OC)c(O)c(OC)c3)C3C(=O)OCC23)OCO4)cc1 (some centres unmarked) [Compound 12]
4.5

Now, please, on to the next compound.
Report value: EC50, system: MCF-7 (breast adenocarcinoma), compound: COc1cc([C@@H]2c3cc4c(cc3[C@@H](Nc3ccc([N+](=O)[O-])cc3)[C@H]3COC(=O)[C@H]23)OCO4)cc(OC)c1O [GL-331, reference compound]
12

====

System: A549 (lung adenocarcinoma)
test summary: Cell growth inhibition (standard SRB assay), A549
Type: cell-based, human
test conditions: 3 days of continuous treatment, read-out: Cell growth inhibition ED50
# pEC50 listing for each entry below
Remember the convention: pEC50 equals -log10 of concentration in molar.

Give pEC50 for the following compound: COC(=O)[C@H](Cc1ccc(O)cc1)NC(=O)c1ccc(NC2c3cc4c(cc3C(c3cc(OC)c(O)c(OC)c3)C3C(=O)OCC23)OCO4)cc1 (stereo partly drawn)
5.62

Further cases:
Give pEC50 for the following compound: COc1cc([C@@H]2c3cc4c(cc3[C@@H](Nc3ccc([N+](=O)[O-])cc3)[C@H]3COC(=O)[C@H]23)OCO4)cc(OC)c1O [GL-331, reference compound]
6.15

====

Tested on: KB-7d (MRP-pleotrophic multidrug-resistant KB sub-clone)
test summary: Cell growth inhibition (standard SRB assay), KB-7d
Format: cell-based, human
test conditions: Homo sapiens, KB7D, 72 h, 3 days of continuous treatment, read-out: Cell growth inhibition ED50
pEC50: −log10 of the molar value.
value kind: pEC50

Report value: pEC50, system: KB-7d (MRP-pleotrophic multidrug-resistant KB sub-clone), molecule: COc1cc([C@@H]2c3cc4c(cc3[C@@H](O[C@@H]3O[C@@H]5CO[C@@H](C)O[C@H]5[C@H](O)[C@H]3O)[C@H]3COC(=O)[C@H]23)OCO4)cc(OC)c1O [Etoposide]
< 5.00

====

# EC50 listing for each entry below
Tested on: KB-7d (MRP-pleotrophic multidrug-resistant KB sub-clone)
test summary: Cell growth inhibition (standard SRB assay), KB-7d
Assay type: cell-based, human
test conditions: 3 days of continuous treatment, read-out: Cell growth inhibition ED50
Reply with just the number (in µM).

Completed entries (count: 2):
Give EC50 for the following compound: COc1cc(C2c3cc4c(cc3C(NC(=O)[C@H](Cc3ccc(O)cc3)NC(=O)OCc3ccccc3)C3COC(=O)C23)OCO4)cc(OC)c1O (stereo partly drawn)
6.7

Give EC50 for the following compound: COc1cc([C@@H]2c3cc4c(cc3[C@@H](Nc3ccc([N+](=O)[O-])cc3)[C@H]3COC(=O)[C@H]23)OCO4)cc(OC)c1O [GL-331, reference compound]
1.9

Now, please, on to the next compound.
Give EC50 for the following compound: COC(=O)[C@H](Cc1ccc(O)cc1)NC(=O)c1ccc(NC2c3cc4c(cc3C(c3cc(OC)c(O)c(OC)c3)C3C(=O)OCC23)OCO4)cc1 (stereo partly drawn)
5
